The compounds listed here are annotated with their melting point.

Supply recorded melting point for `O=C(CCCCCCC(=O)N1CCN(c2ccc([N+](=O)[O-])cc2)CC1)NO` here. 125 to 127 °C

Given the compound `O=C(CCCCCC(=O)N1CCN(c2ccc(F)cc2)CC1)NO` , write its reported melting point. 119 to 120 °C

Give the value of melting point reported for the following: `O=C(/C=C/c1cccc(S(=O)(=O)N2CCN(c3ccccc3F)CC2)c1)NO` 176 °C

Let me know recorded melting point for `COc1ccccc1N1CCN(C(=O)CCCCCCC(=O)NO)CC1` , thanks. 135 to 137 °C

Could you please provide reported melting point for `O=C(CCCCCCC(=O)N1CCN(c2ccccc2)CC1)NO` ? Thanks! 134 to 136 °C

Supply recorded melting point for `O=C(/C=C/c1ccc(S(=O)(=O)N2CCN(C(c3ccc(F)cc3)c3ccc(F)cc3)CC2)cc1)NO` here. 125 to 126 °C

State its melting point for this compound: `O=C(/C=C/c1ccc(S(=O)(=O)N2CCN(c3ccc([N+](=O)[O-])cc3)CC2)cc1)NO` 199 to 200 °C

====

Counter-ions that a name gives are not always drawn.
This section presents compounds with their documented melting point values.

# count of solved cases: 5
{"columns": ["compound", "value-observed"],
 "data": [
  ["O=C(/C=C/c1ccc(S(=O)(=O)N2CCN(c3cccc(C(F)(F)F)c3)CC2)cc1)NO", "178 to 179 °C"],
  ["O=C(/C=C/c1cccc(S(=O)(=O)N2CCN(Cc3ccccc3)CC2)c1)NO", "185 °C"],
  ["COc1ccc(N2CCN(C(=O)CCCCCCC(=O)NO)CC2)cc1", "149 to 150 °C"],
  ["O=C(CCCCCC(=O)N1CCN(c2ccc(Cl)c(Cl)c2)CC1)NO", "125 to 126 °C"],
  ["O=C(CCCCCC(=O)N1CCN(CCCc2c[nH]c3ccccc23)CC1)NO", "165 to 166 °C"]
]}

Now let's try a different one.
Input O=C(CCCCCC(=O)N1CCN(c2ccccn2)CC1)NO (as salt: oxalate) , output reported melting point. 118 to 122 °C

====

Tested on: K11 (HPV E7 transformed human keratinocyte line)
Assay: Secondary assay: cell proliferation inhibition WST-1, K11
Type: cell-based
Conditions: K11; 48 h; read-out: Cell Proliferation Inhibition WST-1 (IC50 unless otherwise specified) K11
quantity: pIC50
Friendly reminder that pIC50 comes from taking -log10 of the concentration in mol/L.

Specify reported pIC50 for the compound shown: Nc1ccccc1NC(=O)c1ccc(CNC(=O)OCc2cccnc2)cc1 [MS-275, reference compound] 5.04

====

quantity: melting point (°C)

{"columns": ["compound", "melting point [°C]"],
 "data": [
  ["O=C(/C=C/c1cccc(S(=O)(=O)N2CCN(C/C=C/c3ccccc3)CC2)c1)NO [PX118870]", 178],
  ["COc1cccc(N2CCN(S(=O)(=O)c3cccc(/C=C/C(=O)NO)c3)CC2)c1 [PX118872]", 196]
]}

====

Item-by-item account of melting point

{"columns": ["query-smiles", "value-observed"],
 "data": [
  ["O=C(CCCCCCC(=O)N1CCN(CC(c2ccccc2)c2ccccc2)CC1)NO", "117 to 118 °C"],
  ["O=C(/C=C/c1cccc(S(=O)(=O)N2CCN(CC(c3ccccc3)c3ccccc3)CC2)c1)NO", "117 °C (dec.)"],
  ["O=C(CCCCCCC(=O)N1CCN(C(=O)c2ccc3ccccc3c2)CC1)NO", "133.5 to 134.5 °C"]
]}

Check the records and state melting point for `COc1ccccc1N1CCN(S(=O)(=O)c2cccc(/C=C/C(=O)NO)c2)CC1` 190 °C

Please look at this molecule and report its melting point: `O=C(CCCCCC(=O)N1CCN(c2ccccc2Cl)CC1)NO` 128 to 130 °C

Please give the documented melting point of `CN(C)c1ccc(C(=O)N2CCN(C(=O)CCCCCCC(=O)NO)CC2)cc1` 90 to 92 °C

Identify melting point associated with the molecule `O=C(CCCCCC(=O)N1CCN(C(=O)c2c[nH]c3ccccc23)CC1)NO` 86 to 88 °C

Name the recorded melting point of the item `O=C(/C=C/c1cccc(S(=O)(=O)N2CCN(c3cccc(C(F)(F)F)c3)CC2)c1)NO` in your answer. 173 °C

# return recorded melting point for input `O=C(/C=C/c1cccc(S(=O)(=O)N2CCN(c3cccc(Cl)c3)CC2)c1)NO` 201 °C

====

Test system: K11 (HPV E7 transformed human keratinocyte line)
Assay: Secondary assay: cell proliferation inhibition WST-1, K11
Assay type: cell-based
Details: Homo sapiens, Keratinocyte; K11; 48 h; read-out: Cell Proliferation Inhibition WST-1 (IC50 unless otherwise specified) K11
quantity: IC50 (µM)
Express your answer in µM, writing the number without its unit.

// solved cases for IC50 follow
{"columns": ["compound", "IC50 / µM"],
 "data": [
  ["O=C(CCCCCCC(=O)N1CCN(C(c2ccccc2)c2ccccc2)CC1)NO [PX117764]", 9.45],
  ["COc1ccccc1N1CCN(C(=O)CCCCCCC(=O)NO)CC1 [PX117768]", 8.67]
]}

Now look at this entry.
Please indicate recorded IC50 of O=C(/C=C/c1cccc(S(=O)(=O)N2CCN(c3ccccc3)CC2)c1)NO [PX118490] measured with K11 (HPV E7 transformed human keratinocyte line). 2.49

====

The following compounds are shown together with reported melting point values.

Examples with their reported melting point follow.
{"columns": ["query-smiles", "melting point"],
 "data": [
  ["O=C(/C=C/c1cccc(S(=O)(=O)N2CCN(c3ccc(Cl)cc3)CC2)c1)NO", "215 °C"],
  ["CN(C)c1ccc(CCN2CCN(C(=O)CCCCCCC(=O)NO)CC2)cc1", "103 to 105 °C"]
]}

Tell me its melting point given `COc1cccc(N2CCN(C(=O)CCCCCCC(=O)NO)CC2)c1` as the entry. 122 to 122.5 °C

====

quantity: melting point

Examples with answers:
{"columns": ["compound", "melting point"],
 "data": [
  ["O=C(CCCCCCC(=O)N1CCN(C(=O)c2ccccc2)CC1)NO [PX118831]", "100 to 101 °C"],
  ["CN(C)c1ccc(CCN2CCN(S(=O)(=O)c3cccc(/C=C/C(=O)NO)c3)CC2)cc1 [PX118951]", "189 °C"],
  ["O=C(CCCCCCC(=O)N1CCN(C(=O)COc2ccc3ccccc3c2)CC1)NO [PX118929]", "139 to 140.5 °C"]
]}

Provide melting point value for the following compound: O=C(CCCCCCC(=O)N1CCN(c2ncccn2)CC1)NO [PX118850] 132 to 133.5 °C

Give recorded melting point. CN(C)c1ccc(CC(=O)N2CCN(C(=O)CCCCCCC(=O)NO)CC2)cc1 [PX118848] 77 to 79 °C

Give the reported melting point for this compound. O=C(CCCCCCC(=O)N1CCN(C(c2ccccc2)c2ccccc2)CC1)NO [PX117764] 126 to 129 °C

Item O=C(CCCCCCC(=O)N1CCN(c2cccc(F)c2)CC1)NO [PX118859] : provide melting point 149 to 150.5 °C

Supply melting point value. Item: C=C(Cl)c1ccc(N2CCN(S(=O)(=O)c3cccc(/C=C/C(=O)NO)c3)CC2)cc1 [PX118933] 203 °C (dec.)

Could you please provide reported melting point for O=C(CCCCCC(=O)N1CCN(c2ccccc2)CC1)NO [PX117404] ? Thanks! 107 to 109 °C

Return the recorded melting point value; entry: COc1cccc(N2CCN(S(=O)(=O)c3ccc(/C=C/C(=O)NO)cc3)CC2)c1 [PX118892] 199 to 200 °C

Return melting point (reported value) for this compound: Cc1cccc(N2CCN(C(=O)CCCCCCC(=O)NO)CC2C)c1 (stereo not drawn) [PX118899] 75 to 76 °C

Output melting point of O=C(CCCCCC(=O)N1CCN(Cc2c[nH]c3ccccc23)CC1)NO [PX118978] 65 to 67 °C

====

# reported melting point; entries follow

Reference set, count: 2
{"columns": ["query-smiles", "quantity", "value-observed"],
 "data": [
  ["Cc1ccc(N2CCN(C(=O)CCCCCC(=O)NO)CC2)cc1C", "melting point", "119.5 to 120.5 °C"],
  ["O=C(CCCCCCC(=O)N1CCN(C(=O)Cc2csc3ccccc23)CC1)NO", "melting point", "140 to 141 °C"]
]}

Let us examine a further case.
Report measured melting point; entry is `O=C(CCCCCCC(=O)N1CCN(c2cccc(Cl)c2)CC1)NO` 122 to 124 °C

====

quantity: melting point

{"columns": ["query-smiles", "melting point"],
 "data": [
  ["O=C(CCCCCC(=O)N1CCN(C(c2ccccc2)c2ccccc2)CC1)NO", "157 to 159 °C"]
]}

Give the value of melting point reported for the following: `O=C(/C=C/c1cccc(S(=O)(=O)N2CCN(CCOc3cccc4ccccc34)CC2)c1)NO` 178 °C

# return recorded melting point for entry `O=C(/C=C/c1ccc(S(=O)(=O)N2CCN(c3ccccc3F)CC2)cc1)NO` 196 to 197 °C
